All figures here come from patent US20250197372A1.

assayed_system: recombinant alpha-glucosidase I (human full-length glucosidase I, Glu 1) (Homo sapiens)
Construct: 6-His (C); made in house; host or cells: HEK-293T cells transduced with BacMam virus (virus raised in Sf9)
Sequence (Q13724 1-837): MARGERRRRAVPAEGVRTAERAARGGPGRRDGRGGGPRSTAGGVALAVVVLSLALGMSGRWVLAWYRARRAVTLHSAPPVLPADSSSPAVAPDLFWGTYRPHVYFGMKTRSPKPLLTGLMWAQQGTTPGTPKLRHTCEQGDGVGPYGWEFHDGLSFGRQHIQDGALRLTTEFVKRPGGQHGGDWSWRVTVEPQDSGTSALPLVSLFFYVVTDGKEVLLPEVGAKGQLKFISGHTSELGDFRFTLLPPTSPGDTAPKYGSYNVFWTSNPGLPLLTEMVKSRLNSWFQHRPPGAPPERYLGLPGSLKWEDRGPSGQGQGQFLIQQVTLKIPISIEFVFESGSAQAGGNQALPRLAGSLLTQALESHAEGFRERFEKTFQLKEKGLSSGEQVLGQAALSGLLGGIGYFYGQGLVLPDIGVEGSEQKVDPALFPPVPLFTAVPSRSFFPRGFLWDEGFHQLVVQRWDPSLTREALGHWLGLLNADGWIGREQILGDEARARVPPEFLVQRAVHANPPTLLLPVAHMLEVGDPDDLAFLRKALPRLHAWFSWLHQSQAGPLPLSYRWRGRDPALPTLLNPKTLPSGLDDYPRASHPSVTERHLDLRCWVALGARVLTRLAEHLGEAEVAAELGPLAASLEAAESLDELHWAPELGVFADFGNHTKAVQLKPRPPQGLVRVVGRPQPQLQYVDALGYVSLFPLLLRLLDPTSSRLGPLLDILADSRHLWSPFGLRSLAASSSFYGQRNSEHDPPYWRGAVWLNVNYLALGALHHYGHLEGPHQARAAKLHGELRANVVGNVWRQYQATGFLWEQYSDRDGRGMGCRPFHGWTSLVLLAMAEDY
run_description: Alpha-glucosidase I assay (Amplex Red glucose detection, synthetic trisaccharide substrate)
Type: biochemical
cond: Glucosidase 1; read-out: Glu 1 IC50
Assign labels as follows, please: Satisfied for IC50 below 100 nM; Not satisfied for IC50 equal to or exceeding 100 nM.

NC(=O)CCN(CCNc1ccc(-c2ncccn2)cc1[N+](=O)[O-])CCN1C[C@H](O)[C@@H](O)[C@H](O)[C@H]1CO [Compound 1226]; Not satisfied
O=[N+]([O-])c1cc(CN2CCCO2)ccc1NCc1ccc(CN2C[C@H](O)[C@@H](O)[C@H](O)[C@H]2CO)cc1 [Compound 1098]; Satisfied
CS(=O)(=O)c1cc(NCc2ccc(CN3C[C@H](O)[C@@H](O)[C@H](O)[C@H]3CO)cc2)cc(-c2ncccn2)c1 [Compound 1059]; Satisfied
OC[C@@H]1[C@@H](O)[C@H](O)[C@@H](O)CN1Cc1ccc(CNc2cc(-c3ncccn3)cc(C3CC3)c2)cc1 [Compound 1013]; Satisfied
[N-]=[N+]=Nc1ccc(NCCc2cc(Br)cc(CCN3C[C@H](O)[C@@H](O)[C@H](O)[C@H]3CO)c2)c([N+](=O)[O-])c1 [Compound 1140]; Not satisfied
Nc1ccc(NCCCCCCCCN2C[C@H](O)[C@@H](O)[C@H](O)[C@H]2CO)c([N+](=O)[O-])c1Cl [Compound 1277]; Not satisfied

Query: Is IC50 strictly under 100 nM for the entry CN(C)Cc1ccc(NCCCCCCN2C[C@H](O)[C@@H](O)[C@H](O)[C@H]2CO)c(C#N)c1 [Compound 1257] ?
Response: Not satisfied

Query: Is IC50 strictly under 100 nM for the entry OC[C@@H]1[C@@H](O)[C@H](O)[C@@H](O)CN1CCc1ccc(CCNc2cc(Cl)cc(-c3ccco3)c2)cc1 [Compound 1159] ?
Response: Not satisfied

Query: Is IC50 strictly under 100 nM for the entry N#Cc1cc(NCc2ccc(CN3C[C@H](O)[C@@H](O)[C@H](O)[C@H]3CO)cc2)cc(-c2cccnn2)c1 [Compound 1064] ?
Response: Satisfied

Query: Is IC50 strictly under 100 nM for the entry COc1cc(Cc2ccccc2)cc(NCCCCCCN2C[C@H](O)[C@@H](O)[C@H](O)[C@H]2CO)c1 [Compound 1145] ?
Response: Not satisfied

Query: Is IC50 strictly under 100 nM for the entry N#CCc1ccc(NCCCCCCN2C[C@H](O)[C@@H](O)[C@H](O)[C@H]2CO)c([N+](=O)[O-])c1 [Compound 1299] ?
Response: Not satisfied
